# measuredTarget: T1, human TL1A extracellular domain with N-terminal HIS and FLAG tag (human, UniProt O95150 72-251)
# T1 construct: the whole entry is named
# T1 sequence: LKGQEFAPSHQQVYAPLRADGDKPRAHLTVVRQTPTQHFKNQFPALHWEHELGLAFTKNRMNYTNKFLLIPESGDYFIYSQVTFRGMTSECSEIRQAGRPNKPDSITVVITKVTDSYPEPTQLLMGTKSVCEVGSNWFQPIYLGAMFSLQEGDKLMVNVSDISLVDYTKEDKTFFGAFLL
# testName: SPR Run 4, purified Ab captured on Protein A, TL1A 5 ug/mL, timepoint 44
Recorded TL1A Binding Level (Early) values for a group of binders are listed next.

binder	unitAbbrev	TL1A Binding Level (Early)
320-358 (antibody, human IgG1, name in Kabat numbering, V domains shown, human IgG1, lambda) VH: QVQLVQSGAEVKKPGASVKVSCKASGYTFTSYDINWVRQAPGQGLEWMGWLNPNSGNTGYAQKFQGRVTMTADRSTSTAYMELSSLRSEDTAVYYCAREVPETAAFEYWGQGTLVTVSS VL: QSVLTQPPSVSGAPGQRVTISCTSSSSDIGAGLGVHWYQQLPGTAPKLLIEGYYNRPSGVPDRFSGSKSGTSASLTITGLLPEDEGDYYCQSYDGTASALFGGGTKLTVLG	RU	82
320-326 (antibody, human IgG1, name in Kabat numbering, V domains shown, human IgG1, lambda) VH: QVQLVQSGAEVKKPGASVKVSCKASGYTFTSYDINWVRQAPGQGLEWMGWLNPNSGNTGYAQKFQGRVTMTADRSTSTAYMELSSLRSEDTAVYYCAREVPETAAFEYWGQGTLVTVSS VL: QSVLTQPPSVSGAPGQRVTISCTSSSSDIGAGLGVHWYQQLPGTAPKLLIEGYYNRPSGVPDRFSGSKSGTSASLTITGLLPEDEGDYYCQSSDGTLSALFGGGTKLTVLG	RU	126
